Would you mind telling me the reported MIC of each entry?
System: Staphylococcus aureus
experimental-details: Antimicrobial activity against methicillin-resistant Staphylococcus aureus ATCC BAA-1556 after 16 hrs by broth microdilution method
Format: functional
recorded-conditions: ATCC BAA-1556, 16 h
Lab note: write values as number then unit, every time.

-- ask Consider the molecule shown here: `CCCCCc1ccc(C(=O)Nc2ccc3c(c2)nc(N)n3CCc2c[nH]c3ccccc23)cc1.Cl` What is its recorded MIC?
-- reply 16 µg/mL

-- ask Consider the molecule shown here: `CCCCCc1ccc(C(=O)Nc2ccc3c(c2)nc(N)n3CCCCc2c[nH]c3ccccc23)cc1.Cl` What is its recorded MIC?
-- reply 32 µg/mL

-- ask Consider the molecule shown here: `CCCCCc1ccc(C(=O)Nc2ccc3c(c2)nc(N)n3C2CCCC2)cc1.Cl` What is its recorded MIC?
-- reply 8 µg/mL

* * *

Would you mind telling me the reported MIC of each entry?
Test system: Staphylococcus aureus
experimental-details: Antimicrobial activity against methicillin-resistant Staphylococcus aureus ATCC BAA-1753 after 16 hrs by broth microdilution method
Type: functional
recorded-conditions: ATCC BAA-1753, 16 h
Respond with the bare value in µg/mL.

-- ask Consider the compound shown here: `CCCCCc1ccc(C(=O)Nc2ccc3c(c2)nc(N)n3CCCCc2c[nH]c3ccccc23)cc1.Cl` What is its recorded MIC?
-- reply 64

-- ask Consider the compound shown here: `CCCCCc1ccc(C(=O)Nc2ccc3c(c2)nc(N)n3CCc2ccccn2)cc1.Cl` What is its recorded MIC?
-- reply 32

-- ask Consider the compound shown here: `CCCCCCCCn1c(N)nc2cc(NC(=O)c3ccc(CCCCC)cc3)ccc21.Cl` What is its recorded MIC?
-- reply 64

-- ask Consider the compound shown here: `CCCCCc1ccc(C(=O)Nc2ccc3c(c2)nc(N)n3CCCc2ccccc2)cc1.Cl` What is its recorded MIC?
-- reply 32

-- ask Consider the compound shown here: `CCCCCc1ccc(C(=O)Nc2ccc3c(c2)nc(N)n3C)cc1.Cl` What is its recorded MIC?
-- reply 8

-- ask Consider the compound shown here: `CCCCCc1ccc(C(=O)Nc2ccc3c(c2)nc(N)n3C(C)C)cc1.Cl` What is its recorded MIC?
-- reply 16

-- ask Consider the compound shown here: `CCCCCc1ccc(C(=O)Nc2ccc3c(c2)nc(N)n3C2CCCC2)cc1.Cl` What is its recorded MIC?
-- reply 8

-- ask Consider the compound shown here: `CCCCCc1ccc(C(=O)Nc2ccc3c(c2)nc(N)n3CCc2ccc(OC)cc2)cc1.Cl` What is its recorded MIC?
-- reply 16

-- ask Consider the compound shown here: `CCCCCc1ccc(C(=O)Nc2ccc3[nH]c(N)nc3c2)cc1` What is its recorded MIC?
-- reply 8

-- ask Consider the compound shown here: `CCCCCCn1c(N)nc2cc(NC(=O)c3ccc(CCCCC)cc3)ccc21.Cl` What is its recorded MIC?
-- reply 16

-- ask Consider the compound shown here: `CCCCCc1ccc(C(=O)Nc2ccc3c(c2)nc(N)n3-c2ccc(CCCCC)cc2)cc1.Cl` What is its recorded MIC?
-- reply 64

-- ask Consider the compound shown here: `CCCCCc1ccc(C(=O)Nc2ccc3c(c2)nc(N)n3CCc2cccc(OC)c2)cc1.Cl` What is its recorded MIC?
-- reply 16

-- ask Consider the compound shown here: `CCCCCc1ccc(C(=O)Nc2ccc3c(c2)nc(N)n3CCc2c[nH]c3ccccc23)cc1.Cl` What is its recorded MIC?
-- reply 16

-- ask Consider the compound shown here: `CCCCCc1ccc(C(=O)Nc2ccc3c(c2)nc(N)n3CCc2ccc3ccccc3c2)cc1.Cl` What is its recorded MIC?
-- reply 64

-- ask Consider the compound shown here: `CCCCCc1ccc(C(=O)Nc2ccc3c(c2)nc(N)n3CCc2ccccc2)cc1.Cl` What is its recorded MIC?
-- reply 8

* * *

System: Staphylococcus aureus
experimental-details: Toxicity in methicillin-resistant Staphylococcus aureus ATCC BAA-44 assessed as inhibition of planktonic cell growth at IC50 after 2 to 24 hrs by spectrophotometry
Assay type: organism-based
property-name: Activity

-- ask Consider the compound shown here: `CCCCCc1ccc(C(=O)Nc2ccc3c(c2)nc(N)n3CCc2ccccc2OC)cc1.Cl` What is its recorded Activity?
-- reply Toxic

-- ask Consider the compound shown here: `CCCCCc1ccc(C(=O)Nc2ccc3c(c2)nc(N)n3Cc2ccc(OC)cc2)cc1.Cl` What is its recorded Activity?
-- reply Toxic

* * *

Test system: Staphylococcus aureus
experimental-details: Antimicrobial activity against methicillin-susceptible Staphylococcus aureus ATCC 29213 after 16 hrs by broth microdilution method
Type: functional
recorded-conditions: ATCC 29213, 16 h
Would you mind telling me the reported MIC of each entry?
Respond with the bare value in µg/mL.

-- ask Consider the compound shown here: `CCCCCc1ccc(C(=O)Nc2ccc3c(c2)nc(N)n3CCc2cccc(OC)c2)cc1.Cl` What is its recorded MIC?
-- reply 16

-- ask Consider the compound shown here: `CCCCCc1ccc(C(=O)Nc2ccc3c(c2)nc(N)n3C2CCCC2)cc1.Cl` What is its recorded MIC?
-- reply 16

* * *

Tested on: Staphylococcus aureus
experimental-details: Antimicrobial activity against methicillin-resistant Staphylococcus aureus ATCC BAA-1685 after 16 hrs by broth microdilution method
Type: functional
recorded-conditions: ATCC BAA-1685, 16 h
property-name: MIC (µg/mL)
Respond with the bare value in µg/mL.

-- ask Consider the compound shown here: `CCCCCc1ccc(C(=O)Nc2ccc3c(c2)nc(N)n3CCc2ccccn2)cc1.Cl` What is its recorded MIC?
-- reply 64

-- ask Consider the compound shown here: `CCCCCc1ccc(C(=O)Nc2ccc3c(c2)nc(N)n3CCc2ccc(OC)cc2)cc1.Cl` What is its recorded MIC?
-- reply 8

-- ask Consider the compound shown here: `CCCCCc1ccc(C(=O)Nc2ccc3c(c2)nc(N)n3CCc2ccc3ccccc3c2)cc1.Cl` What is its recorded MIC?
-- reply 32

-- ask Consider the compound shown here: `CCCCCc1ccc(C(=O)Nc2ccc3c(c2)nc(N)n3Cc2ccc(OC)cc2)cc1.Cl` What is its recorded MIC?
-- reply 16

-- ask Consider the compound shown here: `CCCCCc1ccc(C(=O)Nc2ccc3c(c2)nc(N)n3CCc2c[nH]c3ccccc23)cc1.Cl` What is its recorded MIC?
-- reply 16

-- ask Consider the compound shown here: `CCCCCc1ccc(C(=O)Nc2ccc3c(c2)nc(N)n3CCc2ccccc2OC)cc1.Cl` What is its recorded MIC?
-- reply 16

-- ask Consider the compound shown here: `CCCCCc1ccc(C(=O)Nc2ccc3c(c2)nc(N)n3CCCCc2ccccc2)cc1.Cl` What is its recorded MIC?
-- reply 32

-- ask Consider the compound shown here: `CCCCCc1ccc(C(=O)Nc2ccc3c(c2)nc(N)n3C(C)C)cc1.Cl` What is its recorded MIC?
-- reply 8

-- ask Consider the compound shown here: `CCCCCc1ccc(C(=O)Nc2ccc3[nH]c(N)nc3c2)cc1` What is its recorded MIC?
-- reply 16

* * *

System: Staphylococcus aureus
experimental-details: Toxicity in methicillin-resistant Staphylococcus aureus ATCC 43300 assessed as inhibition of planktonic cell growth at IC50 after 2 to 24 hrs by spectrophotometry
Assay type: organism-based
property-name: Activity

Reference set, count: 9
-- ask Form field: Activity recorded for `CCCCCc1ccc(C(=O)Nc2ccc3c(c2)nc(N)n3CCc2ccc(OC)cc2)cc1.Cl` with Staphylococcus aureus (enter value)
-- reply Toxic

-- ask Form field: Activity recorded for `CCCCCc1ccc(C(=O)Nc2ccc3c(c2)nc(N)n3C(C)C)cc1.Cl` with Staphylococcus aureus (enter value)
-- reply Non-toxic

-- ask Form field: Activity recorded for `CCCCCc1ccc(C(=O)Nc2ccc3c(c2)nc(N)n3Cc2ccc(OC)cc2)cc1.Cl` with Staphylococcus aureus (enter value)
-- reply Non-toxic

-- ask Form field: Activity recorded for `CCCCCc1ccc(C(=O)Nc2ccc3c(c2)nc(N)n3CCc2c[nH]c3ccccc23)cc1.Cl` with Staphylococcus aureus (enter value)
-- reply Toxic

-- ask Form field: Activity recorded for `CCCCCc1ccc(C(=O)Nc2ccc3c(c2)nc(N)n3CCCC)cc1.Cl` with Staphylococcus aureus (enter value)
-- reply Non-toxic

-- ask Form field: Activity recorded for `CCCCCc1ccc(C(=O)Nc2ccc3c(c2)nc(N)n3C2CCCC2)cc1.Cl` with Staphylococcus aureus (enter value)
-- reply Non-toxic

-- ask Form field: Activity recorded for `CCCCCc1ccc(C(=O)Nc2ccc3c(c2)nc(N)n3CCc2ccccc2)cc1.Cl` with Staphylococcus aureus (enter value)
-- reply Non-toxic

-- ask Form field: Activity recorded for `CCCCCc1ccc(C(=O)Nc2ccc3c(c2)nc(N)n3CCCCc2ccccc2)cc1.Cl` with Staphylococcus aureus (enter value)
-- reply Toxic

-- ask Form field: Activity recorded for `CCCCCCCCn1c(N)nc2cc(NC(=O)c3ccc(CCCCC)cc3)ccc21.Cl` with Staphylococcus aureus (enter value)
-- reply Non-toxic

Consider the additional compound presented here.
-- ask Form field: Activity recorded for `CCCCCc1ccc(C(=O)Nc2ccc3c(c2)nc(N)n3CCCc2ccccc2)cc1.Cl` with Staphylococcus aureus (enter value)
-- reply Non-toxic

Every entry's value here was drawn from ChEMBL document CHEMBL3217587.
